The measurements presented in this section are drawn from PubChem BioAssay (NCI).

Tested on: CCRF-CEM leukemia
Test: NCI-60 one-dose screen, 48 h (100 = growth as untreated, 0 = no growth, -100 = all killed)
Details: 10 µM unless noted
This is part of a sample that, as a whole, favours compounds with a hit. Of some 83,000 tested, about 20% had one in any assay.
measurementLabel: growth (%)

[
  {
    "molecule": "CCCCCCc1cc2cc(-c3nc4ccccc4[nH]3)c(=Nc3ccccc3C)oc2cc1O",
    "unitsOfMeasure": "%",
    "resultValue": 25.3
  },
  {
    "molecule": "C[n+]1c2ccccc2nc2ccc(NCCO)cc21",
    "unitsOfMeasure": "%",
    "resultValue": 64.5
  },
  {
    "molecule": "O=C(Nc1ncc(Cc2cccc(C(F)(F)F)c2)s1)C1COc2ccccc2O1 (centres undefined)",
    "unitsOfMeasure": "%",
    "resultValue": 86.7
  },
  {
    "molecule": "O=C(CN1C(=O)/C(=C\\c2ccc(Cl)cc2)SC1=S)Nc1ncc(Cc2ccc(Cl)cc2)s1",
    "unitsOfMeasure": "%",
    "resultValue": 106
  }
]
